Test target: Calmodulin-1 (Homo sapiens)
Protocol notes: Binding affinity to human calmodulin by isothermal titration calorimetry
Calls of active or inactive are those of the source. The calls are words filed in the database; no cut-off is given here.
Property measured: Activity

OC[C@@H]1O[C@H](n2cnc3c(NCc4ccco4)ncnc32)[C@H](O)[C@@H]1O inactive
O=C(Nc1ccc(C(=O)O)cc1)Nc1ccc(-c2nc(N3CCOCC3)nc(N3CCOCC3)n2)cc1 inactive
O=C1COc2ccc(C(=O)/C=C/c3cc(F)cc4c3OCOC4)cc2N1 inactive
Cc1nc2ccccn2c1-c1csc(Nc2ccc(C(=O)O)cc2)n1 inactive
